Recorded measurements of pKi, one per entry
subject.of.test: Recombinant IKKα (Homo sapiens)
Construct: purchased Millipore, Dundee, UK
Sequence (O15111 whole entry): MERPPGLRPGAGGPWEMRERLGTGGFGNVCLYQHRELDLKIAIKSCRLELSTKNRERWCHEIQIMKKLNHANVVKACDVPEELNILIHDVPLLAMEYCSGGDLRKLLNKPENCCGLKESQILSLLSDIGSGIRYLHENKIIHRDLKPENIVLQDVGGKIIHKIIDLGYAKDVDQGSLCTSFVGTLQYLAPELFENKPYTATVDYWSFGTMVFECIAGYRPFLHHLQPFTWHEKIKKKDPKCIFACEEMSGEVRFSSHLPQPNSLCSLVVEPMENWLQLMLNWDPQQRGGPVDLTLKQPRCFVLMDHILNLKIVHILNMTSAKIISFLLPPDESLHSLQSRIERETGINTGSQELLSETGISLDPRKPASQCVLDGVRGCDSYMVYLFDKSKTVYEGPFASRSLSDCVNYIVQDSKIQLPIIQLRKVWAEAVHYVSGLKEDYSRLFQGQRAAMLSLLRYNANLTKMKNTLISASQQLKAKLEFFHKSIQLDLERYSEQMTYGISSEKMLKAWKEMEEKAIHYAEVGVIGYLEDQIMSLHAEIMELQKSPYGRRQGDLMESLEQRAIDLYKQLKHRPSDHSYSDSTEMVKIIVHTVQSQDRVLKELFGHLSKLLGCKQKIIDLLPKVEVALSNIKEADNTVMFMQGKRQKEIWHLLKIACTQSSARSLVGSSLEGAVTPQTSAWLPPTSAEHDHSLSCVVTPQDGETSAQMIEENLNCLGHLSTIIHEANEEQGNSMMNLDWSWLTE
measurement.protocol: DELFIA IKKα kinase assay (apparent Ki, Cheng-Prusoff)
Assay type: biochemical
condition.details: DELFIA assay (first line of an example)
When answering, recall that pKi equals minus log10 of the concentration in mol/L, and write that number alone.

// solved cases for pKi follow
INSERT INTO measurements (compound, endpoint_name, endpoint_value) VALUES
  ('CC(C)(C)N1CCN(Cc2cc3c(-c4ccc5[nH]nc(N)c5c4)ccnc3[nH]2)CC1 [Example 264]', 'pKi', 8.30),
  ('Nc1n[nH]c2c(C#CC3CCOCC3)cc(-c3ccnc(NC4COC4)c3)cc12 [Example 288]', 'pKi', 7.62),
  ('CN(C)CCNC(=O)c1cc2c(-c3ccc4[nH]nc(N)c4c3)ccnc2[nH]1 [Example 242]', 'pKi', 8.10);

We next turn to a different compound, shown below.
Qu. Please state recorded pKi (tested on Recombinant IKKα (Homo sapiens)) of Nc1n[nH]c2ccc(-c3ccnc4[nH]c(C5CC5)cc34)cc12 [Example 218]
Ans. 8.30

---

subject.of.test: Recombinant IKKβ (Homo sapiens, UniProt O14920)
Construct: purchased Millipore, Dundee, UK
measurement.protocol: DELFIA IKKβ kinase assay (apparent Ki, Cheng-Prusoff)
Assay type: biochemical
condition.details: DELFIA assay (first line of an example)
Classification scheme (Ki): L = under 200 nM, M = from 200 nM up to 1000 nM, H = 1000 nM and over

INSERT INTO assay_data (compound, label_value) VALUES
  ('Nc1n[nH]c2c(C#CCCN3CCCCC3)cc(-c3ccnc4[nH]ccc34)cc12 [Example 211]', 'M'),
  ('CC(C)(O)C#Cc1cc(-c2ccnc(NC(=O)C3CC3)c2)cc2c(N)n[nH]c12 [Example 290]', 'M');

Qu. For this compound, which bin applies? C#Cc1cc(-c2ccnc3[nH]ccc23)cc2c(N)n[nH]c12 [Example 200]
Ans. L

Qu. Entry Nc1n[nH]c2c(-c3ccc(O)cc3)cc(-c3ccnc(NC4COC4)c3)cc12 [Example 324] belongs to which category?
Ans. H

Qu. Entry Nc1n[nH]c2c(C#CC3(O)CCCCC3)cc(-c3ccnc4[nH]ccc34)cc12 [Example 208] belongs to which category?
Ans. M

Qu. Could you place Nc1n[nH]c2ccc(-c3ccnc4[nH]c(C(=O)NC5CCCCC5)cc34)cc12 [Example 236] in its proper category? Many thanks.
Ans. L

Qu. # classify by Ki band: CC(C)(C)OCc1cc2c(-c3ccc4[nH]nc(N)c4c3)ccnc2[nH]1 [Example 227]
Ans. M

---

subject.of.test: IKBKB (IKKβ) (Homo sapiens)
Construct: purchased Life Technologies (assay performed by the vendor)
Sequence (O14920 1-756): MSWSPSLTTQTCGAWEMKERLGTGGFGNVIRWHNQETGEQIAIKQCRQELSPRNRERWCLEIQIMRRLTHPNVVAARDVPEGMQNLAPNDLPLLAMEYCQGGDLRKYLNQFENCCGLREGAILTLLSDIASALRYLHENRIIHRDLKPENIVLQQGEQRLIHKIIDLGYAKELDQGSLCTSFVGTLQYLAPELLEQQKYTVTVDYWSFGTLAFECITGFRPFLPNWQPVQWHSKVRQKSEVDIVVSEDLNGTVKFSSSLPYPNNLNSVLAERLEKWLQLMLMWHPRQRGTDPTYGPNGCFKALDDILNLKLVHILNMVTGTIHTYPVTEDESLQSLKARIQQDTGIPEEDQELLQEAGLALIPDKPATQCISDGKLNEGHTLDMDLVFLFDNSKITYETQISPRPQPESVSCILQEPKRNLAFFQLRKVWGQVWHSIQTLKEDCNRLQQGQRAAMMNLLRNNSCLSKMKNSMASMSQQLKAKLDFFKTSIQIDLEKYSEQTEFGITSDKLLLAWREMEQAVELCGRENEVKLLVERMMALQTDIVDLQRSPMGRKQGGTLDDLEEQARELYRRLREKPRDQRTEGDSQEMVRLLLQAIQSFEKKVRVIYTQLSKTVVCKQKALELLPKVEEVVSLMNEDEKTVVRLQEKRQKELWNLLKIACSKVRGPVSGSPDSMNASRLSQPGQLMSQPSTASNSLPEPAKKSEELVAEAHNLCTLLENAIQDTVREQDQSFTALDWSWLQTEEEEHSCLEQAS
measurement.protocol: Z'-LYTE IKKβ assay (Life Technologies)
Assay type: biochemical
condition.details: Life Technologies assay
Procedure: IKKα and IKKβ inhibitory activity was determined using three different assays: a dissociation enhanced ligand fluorescent immunoassay (DELFIA) based on the protocol of HTScan™ IKKβ Kinase Assay (Cell Signaling Technology, USA); an Adapta IKKα assay (performed by Life Technologies); a Z′-LYTE™ IKKβ assay (performed by Life Technologies). The reaction was performed in low volume NBS, black 384-well plates (Corning model 4514). The test compounds were screened in 1% DMSO (final) in the well. […]
endpoint.name: pIC50
Scale explanation: pIC50 corresponds to minus log10 of a concentration expressed in moles per litre.

INSERT INTO assay_data (compound, subject_of_test, endpoint_value) VALUES
  ('Nc1nccc(-c2ccc3[nH]nc(N)c3c2)c1C#CCCCN1CCOCC1 [Example 96]', 'IKBKB (IKKβ) (Homo sapiens)', 6.15),
  ('Nc1nccc(-c2ccc3[nH]nc(N)c3c2)c1C#CC1(O)CCCCCC1 [Example 91]', 'IKBKB (IKKβ) (Homo sapiens)', 6.30),
  ('Nc1nccc(-c2ccc3[nH]nc(N)c3c2)c1C#Cc1ccccc1 [Example 75]', 'IKBKB (IKKβ) (Homo sapiens)', 7.00);

Qu. Name the recorded pIC50 for CC(C)(O)C#Cc1c(-c2ccc3[nH]nc(N)c3c2)ccnc1N [Example 87] .
Ans. 7.44

Qu. Looking for the measured pIC50 of CC(C)(C)C#Cc1cc(-c2ccnc(N)c2)cc2c(N)n[nH]c12 [Example 137] , can you help?
Ans. 5.64
